# studySystem: UniProt P31649
# Sequence (P31649 whole entry): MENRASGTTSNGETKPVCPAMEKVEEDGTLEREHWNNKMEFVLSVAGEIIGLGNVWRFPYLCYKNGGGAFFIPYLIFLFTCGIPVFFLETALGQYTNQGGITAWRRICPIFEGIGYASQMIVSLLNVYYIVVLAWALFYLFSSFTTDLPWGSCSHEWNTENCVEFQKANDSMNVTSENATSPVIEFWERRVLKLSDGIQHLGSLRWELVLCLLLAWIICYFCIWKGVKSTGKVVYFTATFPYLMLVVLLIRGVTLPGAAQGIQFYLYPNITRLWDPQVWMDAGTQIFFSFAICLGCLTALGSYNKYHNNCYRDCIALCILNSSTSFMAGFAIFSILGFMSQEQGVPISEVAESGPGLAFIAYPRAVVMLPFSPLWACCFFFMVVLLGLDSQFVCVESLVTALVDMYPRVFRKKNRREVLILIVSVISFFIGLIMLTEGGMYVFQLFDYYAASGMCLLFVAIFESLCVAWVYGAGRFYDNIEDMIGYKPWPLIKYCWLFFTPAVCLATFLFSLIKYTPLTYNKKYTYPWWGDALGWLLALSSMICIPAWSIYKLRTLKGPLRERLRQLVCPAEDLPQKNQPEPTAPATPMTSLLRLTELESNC
# experimentDescription: Inhibition of [3H]GABA uptake at mouse GAT3 expressed in HEK cells
# Type: cell-based, HEK293
# conditionContext: read-out: pIC50 (converted)
Category key, based on recorded IC50: bottom bin = under 8 µM, middle bin = from 8 µM up to 20 µM, top bin = 20 µM and over

Previously resolved entries follow.
[ask] Category of "CCCCCCCCCCCCNCc1ccccc1O" , please.
[reply] middle bin

[ask] Which category does the recorded IC50 put "Oc1ccccc1CNCCC=C(c1ccccc1)c1ccccc1" in?
[reply] bottom bin

[ask] Place this molecule in its band: "COc1ccc(C(OCCNCc2ccccc2O)(c2ccc(OC)cc2)c2ccc(OC)cc2)cc1"
[reply] middle bin

[ask] Would you mind sorting "COc1ccc(C(OCCNCc2cccc(O)c2)(c2ccc(OC)cc2)c2ccc(OC)cc2)cc1" into the appropriate category?
[reply] middle bin

[ask] Field: class (IC50) — entry: O=C(O)C1CCCN(CCC=C(c2ccccc2)c2ccccc2)C1 (centres undefined)
[reply] top bin

***
[ask] Assign a category based on measured IC50 for "COc1ccc(C(OCCNCc2ccc(OC)c(O)c2)(c2ccc(OC)cc2)c2ccc(OC)cc2)cc1" and give only the class name.
[reply] middle bin

[ask] Please report the category associated with "CCCCCCCCCCCCNCc1cccc(O)c1" , nothing else.
[reply] bottom bin

[ask] Class label required: "COc1ccc(CNCCC=C(c2ccccc2)c2ccccc2)cc1O"
[reply] middle bin
